Target: T1, cynomolgus monkey CD40 (cynomolgus monkey, UniProt P25942 21-193 (human entry), limits assumed)
T1 chain: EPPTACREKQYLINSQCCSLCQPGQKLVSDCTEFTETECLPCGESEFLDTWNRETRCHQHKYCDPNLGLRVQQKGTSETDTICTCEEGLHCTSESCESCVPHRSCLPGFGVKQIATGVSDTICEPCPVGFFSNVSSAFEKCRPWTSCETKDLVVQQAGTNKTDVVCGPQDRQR
Assay: Octet
# Lookup of reported kon keyed by entry
Answer format: numeric, M⁻¹ s⁻¹ implied, no suffix.

{"binder": "35F11 (antibody, IgG4, V domains shown, also called 4868-1) VH: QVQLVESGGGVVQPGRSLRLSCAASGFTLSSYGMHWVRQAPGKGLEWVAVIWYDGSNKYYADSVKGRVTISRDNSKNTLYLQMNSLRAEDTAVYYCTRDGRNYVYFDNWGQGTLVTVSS VL: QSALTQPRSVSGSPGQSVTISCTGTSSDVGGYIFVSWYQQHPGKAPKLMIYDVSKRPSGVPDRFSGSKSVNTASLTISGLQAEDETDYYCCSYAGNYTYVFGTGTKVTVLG", "kon (M⁻¹ s⁻¹)": 506000}
{"binder": "29H10 (antibody, V domains shown, also called 4877-1) VH: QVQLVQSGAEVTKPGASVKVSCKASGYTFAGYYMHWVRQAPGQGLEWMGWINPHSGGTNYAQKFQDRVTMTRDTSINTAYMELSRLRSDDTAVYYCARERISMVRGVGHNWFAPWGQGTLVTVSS VL: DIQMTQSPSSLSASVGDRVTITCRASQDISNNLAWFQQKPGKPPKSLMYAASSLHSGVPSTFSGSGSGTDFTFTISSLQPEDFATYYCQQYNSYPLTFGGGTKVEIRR", "kon (M⁻¹ s⁻¹)": 612000}

With those in mind, consider the next binder.
Record 33H6 (antibody, IgG4, V domains shown, also called 4883-1) VH: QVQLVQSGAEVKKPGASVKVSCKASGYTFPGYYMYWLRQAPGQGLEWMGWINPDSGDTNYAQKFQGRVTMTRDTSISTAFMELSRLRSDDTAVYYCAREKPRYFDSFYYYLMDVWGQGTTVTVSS VL: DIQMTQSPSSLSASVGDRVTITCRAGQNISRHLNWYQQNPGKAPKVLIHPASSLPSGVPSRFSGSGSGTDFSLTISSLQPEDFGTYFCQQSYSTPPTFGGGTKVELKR , field kon: 556000
